assay: 384-well plate pilot, post-Golgi transport modulator project, inhibition of yeast transport mutant growth (AID 636); details: absorbance 615 nm, about 18 h, stronger effect = higher value
Calls of active or inactive are those of the source. Rule as the data show it: active = inhibition above about 31%; inactive = the rest.
recorded endpoint: inhibition

Some compounds with known inhibition results, for comparison:
compound | inhibition
COc1ccc(OC)c(Nc2ncnc3c2cnn3-c2ccccc2)c1 | -4.67% (inactive)
CCCCc1ccc(NC(=O)COCC)cc1 | -2.63% (inactive)
COc1ccc(-c2noc(-c3ccccc3C(=O)Nc3cccnc3)n2)cc1 | -1.17% (inactive)

So what's the measured inhibition for this one? CN(Cc1ccc(-n2cccn2)cc1)C(=O)c1cnn2c1NC(c1ccco1)CC2C(F)(F)F (centres undefined)
2.88% (inactive)

* * *

assay: HUVEC growth inhibition – cell-based, human, primary screen (AID 575); conditions: HUVEC proliferation, CellTiter-Glo luminescence, 72 h; at 10 µM; stronger effect = lower value;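 also: 100% = median of untreated cell wells with 0.1% DMSO on each plate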
Response field label: string, one of Met (viability strictly below 90%) or Not met.

Decide: viability of CC(NC(=O)c1ccc2c(c1)OCO2)C(c1cccs1)N1CCOCC1 (configuration not stated) strictly below 90%?
Not met

Field: below-cutoff. Rule: recorded viability strictly less than 90%. Subject: `COc1ccc(CCn2c(N)c(C#N)c3nc4ccccc4nc32)cc1OC`
Not met

Bench note: check whether `C/C(Cl)=C/Cn1c(SCc2ccc(Cl)cc2)nc2c1c(=O)[nH]c(=O)n2C` shows viability below 90%
Met

* * *

We begin with a simple list: items and their reported viability.
assay: reversal of MRP1-mediated doxorubicin resistance, pilot screen, H69AR cells, doxorubicin co-treatment (AID 601); settings: H69AR cells + 2 uM doxorubicin, CellTiter-Glo, 72 h; measured here: viability with 2 uM doxorubicin; at 10 µM; stronger effect = lower value
Write the number in % without appending the unit.

A selection of reference data follows.
compound | unit name | recorded result
Fc1ccc(-c2cnc[nH]2)cc1 | % | 90.4
Cc1cccc(-n2nnnc2SCc2csc(-c3ccccc3)n2)c1 | % | 88
O=C(C1CCCO1)N1CCN(C(c2ccccc2)c2ccccc2)CC1 (centres undefined) | % | 89.5

Given the entry `COC(=O)c1c(NC(=O)CSc2nnnn2C)sc(C)c1C` , report its measured viability.
88.1

* * *

assay: SK-BR-3 cell growth inhibitors, pilot screen, 24 h, human (AID 572); conditions: SK-BR-3 viability, CellTiter-Glo luminescence, at 10 µM, stronger effect = lower value;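 also: compound exposure lasted between 18 and 24 h rather than exactly 24 h; 100% = carrier-treated control wells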
recorded endpoint: viability (%)
Express it in %; write the number only.

molecule | unit name | viability
COc1cc(CO)cc(-c2cc(CO)cc(OC)c2OC)c1OC | % | 82
COc1ccc(CNc2nc3nc(C)c(Cl)c(C)n3n2)cc1OC | % | 97
O=P(O)(O)C(O)C(F)(F)C(F)(F)C(F)(F)C(F)F (configuration not stated) | % | 108

I have this molecule here, O=C(O)CCC(=O)NC1CCCCC1NC(=O)CCC(=O)O (configuration not stated) , and I need its recorded viability.
104

Any idea what its viability is? The molecule is `O=C(CSc1nnc2scc(-c3ccccc3)n12)Nc1nsc(-c2ccccc2)n1`
82.5

Quick one: viability for `O=C(C1CCN(S(=O)(=O)c2cnc[nH]2)CC1)N1CCN(c2ncccn2)CC1` ?
112

* * *

assay: reversal of MRP1-mediated doxorubicin resistance, pilot screen, H69AR cells, doxorubicin co-treatment (AID 601); conditions: H69AR cells, CellTiter-Glo, 72 h; compound alone cytotoxicity; at 10 µM
Below: a set of entries, each annotated with reported viability.
Give the number; % is assumed, so skip it.

compound | recorded result
O=C(O)CCn1c(SCc2ccccc2)nc2ccccc21 | 89.3
Cc1ccc2c(c1)nnn2C1CCN(C(=O)NC23CC4CC(CC(C4)C2)C3)CC1 | 92.1
CCN1CCN(Cc2nc3c(c(=O)[nH]c(=O)n3C)n2Cc2ccccc2Cl)CC1 | 92
COC(=O)c1sc(N)c(C(=O)OC)c1COC(=O)C1CC(=O)N(Cc2ccco2)C1 (stereo unspecified) | 72.8
COCCN(Cc1cc2cccc(C)c2[nH]c1=O)C(=O)c1ccccc1 | 102

Requested field: viability. Item: `Cc1onc(-c2ccccc2)c1C(=O)NCCN1CCOCC1`
98

Looking for the measured viability of CCC1CCCCN1C(=O)CSc1nnc(-c2ccco2)o1 (stereo unspecified) , can you help?
85.7

What viability value was documented for this compound, `COc1ccc(N2CCN(C(=O)CCNS(=O)(=O)c3ccc(Br)s3)CC2)cc1` ?
88.7
